Test Details: Approximate solubility, solvent addition method
Type: physicochemical
Measurement Conditions: Toluene; ambient temperature
Where a SMILES comes first, the peptide text is derived from it.
Measured Attribute: solubility

stdin: Quick check: solubility of CC(C)CC(NC(=O)C(N)Cc1ccccc1)C(=O)N1CCCC1C(=O)NC(CO)C(=O)O (stereo not shown) [SEQ ID NO: 1] (H-FLPS-OH; configuration not given here) ?
stdout: ≤ 3600 µg/mL

====

Test Details: Approximate solubility, solvent addition method
Format: physicochemical
Measurement Conditions: 2-Propanol; ambient temperature
Where a SMILES comes first, the peptide text is derived from it.
Measured Attribute: solubility

stdin: Endpoint output: solubility of CC(C)CC(NC(=O)C(N)Cc1ccccc1)C(=O)N1CCCC1C(=O)NC(CO)C(=O)O (stereo not shown) [SEQ ID NO: 1] (H-FLPS-OH; configuration not given here) . Value?
stdout: ≥ 20 mg/mL

Data origin: patent US8217141B2
